Target: HIV integrase (Human immunodeficiency virus type 1 group M subtype B)
Experiment: biochemical
Settings: read-out: Inhibition of 3' processing activity (IC50)
pIC50: −log10 of the molar value.
Entries and their pIC50

compound: O=C(Nc1ccc2c(O)c(N=Nc3ccccc3)c(S(=O)(=O)O)cc2c1)Nc1ccc2c(O)c(N=Nc3ccccc3)c(S(=O)(=O)O)cc2c1 [Compound 62]
comparison.symbol: =
pIC50: 6.40
//
compound: Cc1cc2nc(N=Nc3c(S(=O)(=O)O)cc4cc(NC(=O)C(=O)Nc5ccc6c(O)c(N=Nc7nc8cc(C)c(C)cc8[nH]7)c(S(=O)(=O)O)cc6c5)ccc4c3O)[nH]c2cc1C [Compound 114]
comparison.symbol: =
pIC50: 6.00
//
compound: COc1ccc(C(=O)O)c(N=Nc2c(S(=O)(=O)O)cc3cc(NC(=O)C(=O)Nc4ccc5c(O)c(N=Nc6c(C(=O)O)ccc(OC)c6OC)c(S(=O)(=O)O)cc5c4)ccc3c2O)c1OC [Compound 101]
comparison.symbol: =
pIC50: 6.30
//
compound: COc1cc(N=Nc2c(S(=O)(=O)O)cc3cc(NC(=O)Nc4ccc5c(O)c(N=Nc6cc(OC)c(OC)c(OC)c6)c(S(=O)(=O)O)cc5c4)ccc3c2O)cc(OC)c1OC [Compound 66]
comparison.symbol: =
pIC50: 6.10
//
compound: Cc1ccc(CO)cc1N=Nc1c(S(=O)(=O)O)cc2cc(NC(=O)Nc3ccc4c(O)c(N=Nc5cc(CO)ccc5C)c(S(=O)(=O)O)cc4c3)ccc2c1O [Compound 55]
comparison.symbol: <
pIC50: 5.52

====

Biological target: HIV integrase (Human immunodeficiency virus type 1 group M subtype B)
Test: biochemical
Settings: read-out: Inhibition of 3' processing activity (IC50)

compound: O=C(Nc1ccc2c(O)c(N=Nc3cccc(C(=O)O)c3)c(S(=O)(=O)O)cc2c1)C(=O)Nc1ccc2c(O)c(N=Nc3cccc(C(=O)O)c3)c(S(=O)(=O)O)cc2c1
comparison.symbol: =
IC50 [nM]: 500
--
compound: O=C(Nc1ccc2c(O)c(N=Nc3ccc(C(=O)O)cc3)c(S(=O)(=O)O)cc2c1)Nc1ccc2c(O)c(N=Nc3ccc(C(=O)O)cc3)c(S(=O)(=O)O)cc2c1 [Compound 67]
comparison.symbol: =
IC50 [nM]: 90
--
compound: COc1ccc(N=Nc2c(S(=O)(=O)O)cc3cc(NC(=O)Nc4ccc5c(O)c(N=Nc6ccc(OC)nc6OC)c(S(=O)(=O)O)cc5c4)ccc3c2O)c(OC)n1
comparison.symbol: >
IC50 [nM]: 3000
--
compound: O=C(Nc1ccc2c(O)c(N=Nc3ccc(C(=O)O)cc3)c(S(=O)(=O)O)cc2c1)Nc1ccc2c(O)c(N=Nc3ccc(C(=O)O)cc3)c(S(=O)(=O)O)cc2c1 [Compound 31]
comparison.symbol: =
IC50 [nM]: 400
--
compound: O=C(Nc1ccc2c(O)c(N=Nc3ccc(Cl)cc3)c(S(=O)(=O)O)cc2c1)Nc1ccc2c(O)c(N=Nc3ccc(Cl)cc3)c(S(=O)(=O)O)cc2c1
comparison.symbol: >
IC50 [nM]: 3000

====

The entries below are paired with their reported remaining activity at 10 µM.
Target: HIV reverse transcriptase (Human immunodeficiency virus type 1 group M subtype B)
Assay: Reverse transcriptase scintillation proximity assay (Example 4, Table 2)
Assay type: biochemical
Details: 0.05 h, 10 μM inhibitor; relative to dimethyl sulfoxide = 100%; read-out: % RT activity remaining at 10 μM
endpoint.label: remaining activity at 10 µM (%)

smiles: COc1cc(N=Nc2c(S(=O)(=O)O)cc3cc(NC(=O)Nc4ccc5c(O)c(N=Nc6cc(OC)c(OC)cc6C(=O)O)c(S(=O)(=O)O)cc5c4)ccc3c2O)c(C(=O)O)cc1OC
endpoint.label: remaining activity at 10 µM
recorded.measurement: 6

smiles: CCOC(=O)c1ccccc1N=Nc1c(S(=O)(=O)O)cc2cc(NC(=O)Nc3ccc4c(O)c(N=Nc5ccccc5C(=O)OCC)c(S(=O)(=O)O)cc4c3)ccc2c1O
endpoint.label: remaining activity at 10 µM
recorded.measurement: 47

smiles: CC(=O)Nc1ccc2c(OC(C)=O)cc(S(=O)(=O)O)cc2c1
endpoint.label: remaining activity at 10 µM
recorded.measurement: 100

smiles: Cc1cc(C(=O)O)ccc1N=Nc1c(S(=O)(=O)O)cc2cc(NC(=O)c3cc(=O)cc(C(=O)Nc4ccc5c(O)c(N=Nc6ccc(C(=O)O)cc6C)c(S(=O)(=O)O)cc5c4)o3)ccc2c1O
endpoint.label: remaining activity at 10 µM
recorded.measurement: 0.26

smiles: O=C(O)Cc1ccc(N=Nc2c(S(=O)(=O)O)cc3cc(NC(=O)c4cccc(C(=O)Nc5ccc6c(O)c(N=Nc7ccc(CC(=O)O)cc7)c(S(=O)(=O)O)cc6c5)n4)ccc3c2O)cc1
endpoint.label: remaining activity at 10 µM
recorded.measurement: 0.29

Where do the numbers come from? From patent US6140368A.
